assay_system: T1, soluble human FcRn (human, UniProt P55899 24-297; P61769 21-119, biotinylated (Sulfo-NHS-LC-Biotin) in the ELISA; amine-coupled to CM5 chip in SPR)
T1 construct: also called shFcRn; biotinylated shFcRn
T1 sequence (P55899 24-297 limits assumed, chain 1 of 2): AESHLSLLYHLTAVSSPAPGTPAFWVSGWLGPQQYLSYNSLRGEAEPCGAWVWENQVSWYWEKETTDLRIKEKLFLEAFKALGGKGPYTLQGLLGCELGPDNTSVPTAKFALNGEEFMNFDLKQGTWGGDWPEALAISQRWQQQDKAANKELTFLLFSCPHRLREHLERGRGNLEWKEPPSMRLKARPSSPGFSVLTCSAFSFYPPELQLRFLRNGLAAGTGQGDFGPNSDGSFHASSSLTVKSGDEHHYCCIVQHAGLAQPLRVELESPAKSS
T1 sequence (P61769 21-119 limits assumed, chain 2 of 2): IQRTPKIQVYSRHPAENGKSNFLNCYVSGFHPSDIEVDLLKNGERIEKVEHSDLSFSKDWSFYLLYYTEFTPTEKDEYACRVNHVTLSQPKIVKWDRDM
assay_overview: SPR, pH 6
Bridge positions count the residues as written; N and C are the ends. Ends that are not written are not given here.
Labelling: Kd reported below 70 µM becomes class 1; at or above becomes class 0.

input: Just wondering, is Kd of QRFXTGHFGGLXPCNGP (Pen at 4; 2-nitro-Tyr at 12; disulfide; C-terminal amide) [Peptide No. 87] below 70 µM?
output: class 0

input: Just wondering, is Kd of QRFXTGHFGGLXPCNGP (Pen at 4; 4-amino-Phe at 12; disulfide; C-terminal amide) [Peptide No. 63] below 70 µM?
output: class 1

input: Just wondering, is Kd of QRFCTGHFGGLYPCNGP-NH2 (disulfide 4-14 (inferred)) [SEQ ID NO:1] below 70 µM?
output: class 1
